biological target: TBK1 (Homo sapiens, UniProt Q9UHD2); assay: TBK Biochemical Assay; settings: read-out: TBK1 IC50
Sequence (Q9UHD2 whole entry, species assumed): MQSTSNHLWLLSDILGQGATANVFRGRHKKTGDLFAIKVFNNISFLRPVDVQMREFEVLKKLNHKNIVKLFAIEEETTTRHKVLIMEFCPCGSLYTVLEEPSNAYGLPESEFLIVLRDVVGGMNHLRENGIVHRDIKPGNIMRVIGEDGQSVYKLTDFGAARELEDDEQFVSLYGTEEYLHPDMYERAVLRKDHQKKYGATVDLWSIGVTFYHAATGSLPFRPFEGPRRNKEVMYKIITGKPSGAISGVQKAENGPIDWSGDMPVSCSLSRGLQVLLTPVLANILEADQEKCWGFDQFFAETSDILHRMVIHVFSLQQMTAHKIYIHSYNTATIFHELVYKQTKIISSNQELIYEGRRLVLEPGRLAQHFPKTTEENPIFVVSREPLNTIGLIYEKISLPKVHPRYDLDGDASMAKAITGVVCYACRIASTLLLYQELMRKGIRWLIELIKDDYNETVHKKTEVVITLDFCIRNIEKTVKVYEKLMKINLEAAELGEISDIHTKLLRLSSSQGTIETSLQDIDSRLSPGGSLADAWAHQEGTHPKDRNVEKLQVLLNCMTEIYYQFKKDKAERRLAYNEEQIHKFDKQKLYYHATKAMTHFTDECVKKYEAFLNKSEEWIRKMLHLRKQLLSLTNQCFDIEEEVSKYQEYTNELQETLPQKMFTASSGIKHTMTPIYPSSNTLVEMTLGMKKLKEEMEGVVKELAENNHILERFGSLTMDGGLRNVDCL
Structures can show the parent of a compound that is named as a salt.
Item-by-item account of IC50
measured_metric: IC50

>>> df
                                   molecule  value_reported
0  COc1cc(C(=O)NC(C)(C)CCN(C)C)cnc1-c1cc2nccc(-c3ccc(NC4CCOCC4)c(C#N)c3)c2o1        < 100 nM
1  CN(C)C(=O)c1ccc(-c2cc3nccc(-c4ccc(N5CC[C@H](N(C)C)C5)c(C#N)c4)c3o2)cc1  100 to 1000 nM
2  CN(C)C(=O)c1ccc(-c2cc3nccc(-c4ccc(O[C@H]5CCCOC5)c(C#N)c4)c3o2)cc1  100 to 1000 nM
3  COc1cc(C(=O)N2CC3CC2CO3)ccc1-c1cc2nccc(-c3ccc(OC4CCOCC4)c(C#N)c3)c2o1 (stereo not shown)        < 100 nM
4  COc1cc(C(=O)N(C)C)ncc1-c1cc2nccc(-c3ccc(N4CCC(F)C4)c(C#N)c3)c2o1 (stereo in doubt) [Compound 389]        < 100 nM
5  COc1cc(C(=O)N2CCCCC2)ccc1-c1cc2nccc(-c3ccc(OC4CCOCC4)c(C#N)c3)c2o1        < 100 nM
6  COc1cc(C(=O)N(C)CCO)cnc1-c1cc2ncc(C)c(-c3ccc(OC4CCOCC4)c(C#N)n3)c2o1 [Compound 360, hydrochloride]  100 to 1000 nM

====

biological target: TBK1 (Homo sapiens); assay: TBK Biochemical Assay; settings: read-out: TBK1 IC50
pIC50: −log10 of the molar value. Structures can show the parent of a compound that is named as a salt.
Item-by-item account of pIC50

compound	pIC50
COc1cc(C(=O)N(C)C)cnc1-c1cc2nccc(-c3ccc(OC4CCOCC4F)c(C#N)c3)c2o1 (centres unmarked) [Compound 486]	> 7.00
COc1cc(C(=O)N(C)C)ccc1-c1cc2nccc(-c3ccc(OC4CCN(C(C)C)C4)c(C#N)c3)c2o1 (centres unmarked) [Compound 157]	6.00 to 7.00
N#Cc1cc(-c2ccnc3cc(-c4ccc(C(=O)O)cc4)oc23)ccc1Oc1cccnc1 [Compound 186]	5.30 to 6.00
COc1cc(C(=O)N[C@@H]2CCNC[C@@H]2F)ccc1-c1cc2nccc(-c3cc(F)c(NC4CCOCC4)c(C#N)c3)c2o1 (single isomer, unassigned) [Compound 254, hydrochloride]	6.00 to 7.00
COc1cc(C(=O)N(C)C)ccc1-c1cc2ncc(C)c(-c3ccc(OC4CCOCC4)c(C#N)c3)c2o1 [Compound 269, hydrochloride]	6.00 to 7.00
COc1cc(C(=O)N2CC(N(C)C)C2)ccc1-c1cc2nccc(-c3ccc(OC4CCOCC4)c(C#N)c3)c2o1 [Compound 24]	> 7.00
COc1cc(C(=O)N2CCC3(CC2)NCNC3=O)ccc1-c1cc2nccc(-c3ccc(NC4CCOCC4)c(C#N)c3)c2o1 [Compound 34]	> 7.00
CCOC(=O)c1ccc(-c2cc3nccc(-c4ccc(N5CC[C@H](F)C5)c(C#N)c4)c3o2)cc1 [Compound 187]	5.30 to 6.00
COc1cc(C(=O)N2CC3CCC(O)C3C2)ccc1-c1cc2nccc(-c3ccc(OC4CCOCC4)c(C#N)c3)c2o1 (centres unmarked) [Compound 18]	> 7.00
COc1cc(C(=O)N[C@H]2CCCC[C@H]2O)ccc1-c1cc2nccc(-c3ccc(OC4CCOCC4)c(C#N)c3)c2o1 [Compound 476]	> 7.00
CN(C)C(=O)c1ccc(-c2cc3nccc(-c4ccc(NC5CCOCC5)c(C#N)c4)c3o2)cc1 [Compound 194, hydrochloride]	6.00 to 7.00
COc1cc(C(=O)NCC2(F)COC2)ccc1-c1cc2nccc(-c3ccc(OC4CCOCC4)c(C#N)c3)c2o1 [Compound 69]	> 7.00
CN(C)C(=O)c1ccc(-c2cc3nccc(-c4ccc(OC5CCOCC5)c(C#N)c4)c3o2)c(C(F)(F)F)c1 [Compound 240]	6.00 to 7.00
COc1cc(C(=O)N(C)C)ccc1-c1cc2nccc(-c3ccc(OCC4CCNC4)c(C#N)c3)c2o1 (centres unmarked) [Compound 152, hydrochloride]	> 7.00

Data origin: patent US10428080B2
